- test_system: PDE4 binding sites in humanized PDE4D mouse brain membranes
- experimental_details: [3H]-rolipram radioligand binding to brain membranes
- cond: hPDE4D; inhibition of [3H]-rolipram binding; read-out: Two-site Ki1
quantity_name: Ki
Please make sure the unit comes right after the number.

COc1ccc(C2CNC(=O)C2)cc1OC1CCCC1 (centres unmarked) = 0.39 nM

Then there is this compound:
Query: What is its Ki for PDE4 binding sites in humanized PDE4D mouse brain membranes? Entry: O=C(O)Cc1ccc(Cc2cc(-c3cccc(Cl)c3)nc(C(F)(F)F)c2)cc1
Response: 2.8 nM

* * *

- experimental_details: Pharmacokinetics and plasma exposure in mice
- cond: C57bl/6, mouse, plasma and brain
quantity_name: half-life

Query: Name the reported half-life value associated with the compound O=C(O)Cc1ccc(Cc2cc(-c3cccc(Cl)c3)nc(C(F)(F)F)c2)cc1 [BPN14770]
Response: 8 to 10 h

* * *

- test_system: PDE4 binding sites in wild-type mouse brain membranes
- experimental_details: [3H]-rolipram radioligand binding to brain membranes
- cond: wild-type; inhibition of [3H]-rolipram binding; read-out: Two-site Ki1
quantity_name: pKi
Please note pKi is a logarithmic value: minus log10 of concentration in mol/L. Answer with that number alone.

O=C(O)Cc1ccc(Cc2cc(-c3cccc(Cl)c3)nc(C(F)(F)F)c2)cc1 [BPN14770] = 7.10

Turning to the following compound.
Query: Look up pKi for this compound: COc1ccc(C2CNC(=O)C2)cc1OC1CCCC1 (centres unmarked) [Rolipram]
Response: 9.12

* * *

Catalogue of compounds with associated pKi
- test_system: PDE4 binding sites in humanized PDE4D mouse brain membranes
- experimental_details: [3H]-rolipram radioligand binding to brain membranes
- cond: hPDE4D; inhibition of [3H]-rolipram binding; read-out: Two-site Ki2
Here pKi is given on a logarithmic scale as minus log10 of the concentration in mol/L.

COc1ccc(C2CNC(=O)C2)cc1OC1CCCC1 (centres unmarked) = 8.21

Lab note: next compound to report on.
Query: Item O=C(O)Cc1ccc(Cc2cc(-c3cccc(Cl)c3)nc(C(F)(F)F)c2)cc1 has what recorded pKi?
Response: 6.73

* * *

- experimental_details: Pharmacokinetics and plasma exposure in mice
- cond: C57bl/6, mouse, in vivo, po
quantity_name: bioavailability

Query: Dear colleague, I am looking for the recorded bioavailability of the following molecule: O=C(O)Cc1ccc(Cc2cc(-c3cccc(Cl)c3)nc(C(F)(F)F)c2)cc1 [BPN14770]
Response: 70 to 80%

* * *

- test_system: PDE4 binding sites in humanized PDE4D mouse brain membranes
- experimental_details: [3H]-rolipram radioligand binding to brain membranes
- cond: read-out: One-site Ki
quantity_name: pKi
The value called pKi is obtained by taking minus log10 of the concentration in mol/L.

Query: Report pKi for O=C(O)Cc1ccc(Cc2cc(-c3cccc(Cl)c3)nc(C(F)(F)F)c2)cc1 please.
Response: 7.09

* * *

- test_system: PDE4 binding sites in wild-type mouse brain membranes
- experimental_details: [3H]-rolipram radioligand binding to brain membranes
- cond: wild-type mouse brain membranes; read-out: Kd of [3H]-rolipram saturation binding
quantity_name: pKd
Worth noting: pKd values are minus log10 of concentrations stated in mol/L.

Query: Which value of pKd has been reported for COc1ccc(C2CNC(=O)C2)cc1OC1CCCC1 (stereo not shown) [[^3H]-rolipram] in the records?
Response: 8.42

* * *

- experimental_details: Pharmacokinetics and plasma exposure in mice
- cond: C57bl/6, mouse, brain and plasma
quantity_name: Kp

Query: What value of Kp has been recorded for this entry: O=C(O)Cc1ccc(Cc2cc(-c3cccc(Cl)c3)nc(C(F)(F)F)c2)cc1
Response: 0.4 to 0.42

* * *

- test_system: PDE4 binding sites in humanized PDE4D mouse brain membranes
- experimental_details: [3H]-rolipram radioligand binding to brain membranes
- cond: humanized PDE4D mouse brain membranes; read-out: Kd of [3H]-rolipram saturation binding
quantity_name: Kd (nM)
Give a bare numeral; the unit nM is implied.

Query: Lab note: need Kd for COc1ccc(C2CNC(=O)C2)cc1OC1CCCC1 (stereo not shown) [[^3H]-rolipram] on PDE4 binding sites in humanized PDE4D mouse brain membranes, anyone have it?
Response: 3.72

* * *

- test_system: PDE4 binding sites in wild-type mouse brain membranes
- experimental_details: [3H]-rolipram radioligand binding to brain membranes
- cond: wild-type; inhibition of 2 nM [3H]-rolipram binding; read-out: One-site Ki
quantity_name: pKi
In simple prose, pKi is minus the logarithm base ten of a concentration in moles per litre.

O=C(O)Cc1ccc(Cc2cc(-c3cccc(Cl)c3)nc(C(F)(F)F)c2)cc1 = 6.91

Could you now look at the following molecule, please?
Query: // pKi lookup, key: COc1ccc(C2CNC(=O)C2)cc1OC1CCCC1 (centres unmarked)
Response: 8.70
